molecular target: Sigma intracellular receptor 2 (Homo sapiens); test: Binding affinity to Sigma 2-receptor (unknown origin)
Sequence (Q5BJF2 whole entry): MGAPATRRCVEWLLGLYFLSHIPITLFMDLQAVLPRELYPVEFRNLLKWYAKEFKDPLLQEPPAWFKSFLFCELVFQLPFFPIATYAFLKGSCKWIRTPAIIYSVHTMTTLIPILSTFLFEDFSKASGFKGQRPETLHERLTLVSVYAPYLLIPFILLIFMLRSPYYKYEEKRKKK

chemical_smiles: COc1cc2c(cc1OC)CN([C@H](C)CCc1ccc(Cl)c(Cl)c1)C2
target_or_system: Sigma intracellular receptor 2 (Homo sapiens)
Ki (nM): 0.44
--
chemical_smiles: C[C@@H](CCc1ccc(Cl)c(Cl)c1)NCc1ccc(C(F)(F)F)cc1
target_or_system: Sigma intracellular receptor 2 (Homo sapiens)
Ki (nM): 120
--
chemical_smiles: CC(C)(C)Oc1cc(CCC(C)(C)N2Cc3ccc(S(C)(=O)=O)cc3C2)ccc1O
target_or_system: Sigma intracellular receptor 2 (Homo sapiens)
Ki (nM): 8.5
--
chemical_smiles: CC(C)Oc1cc(CCC(C)(C)N2Cc3cccc(F)c3C2)ccc1O
target_or_system: Sigma intracellular receptor 2 (Homo sapiens)
Ki (nM): 11
